Test system: pancreatic cancer cell lines (e.g. MIA PaCa-2)
Test: Cell based assay, cell viability (CellTiter-Glo), pancreatic cancer cell lines
Settings: Homo sapiens, pancreatic cancer cell line MIA PaCa-2, 72 hours, read-out: IC50, MIA PaCa-2
Measure name: pIC50
Answers are plain numbers, as −log10 of the molar value.

# annotated cases, reported pIC50 shown
                                   molecule                           target_of_assay  result_value
0  CC(=O)c1c([S+]([O-])Cc2cc(Cl)ccc2Cl)[nH]c2c(Br)ccc(Cl)c2c1=O (stereo not shown)  pancreatic cancer cell lines (e.g. MIA PaCa-2)          5.91
1  CC(=O)c1c([S+]([O-])Cc2ccc(C#N)cc2)[nH]c2c(Br)ccc(Cl)c2c1=O (stereo not shown)  pancreatic cancer cell lines (e.g. MIA PaCa-2)          5.78
2  COc1cccc2[nH]c([S+]([O-])Cc3cc(C)on3)c(C(C)=O)c(=O)c12 (stereo not shown)  pancreatic cancer cell lines (e.g. MIA PaCa-2)          5.78

I would be grateful if you could provide pIC50 for each of the following entries.
1. CC(=O)c1c([S+]([O-])Cc2cccc(C#N)c2)[nH]c2c(Br)ccc(Cl)c2c1=O (stereo not shown)
2. CC(=O)c1c([S+](C)[O-])[nH]c2c(Cl)ccc(Cl)c2c1=O (stereo not shown)
3. O=C(c1c([S+]([O-])Cc2ccc(SC(F)(F)F)cc2)[nH]c2c(Br)ccc(Cl)c2c1=O)C1CC1 (stereo not shown)
4. CC(=O)c1c([S+]([O-])Cc2ccc(S(F)(F)(F)(F)F)cc2)[nH]c2c(Br)ccc(Cl)c2c1=O (stereo not shown)
5. CC(=O)c1c([S+]([O-])Cc2cc(C)on2)[nH]c2c(Br)ccc(Cl)c2c1=O (stereo not shown)

1. 6.06
2. 5.87
3. 5.74
4. 5.95
5. 6.12
